The reported numbers originate from a melting point compilation (Tetko et al.; mined from patent text by program, amines drawn as free bases though some values may be those of a salt).

quantity-name: melting point

>>> assay_value("Cc1ccc(O)c2c1CCC2=NO")
"148 to 150 °C"
>>> assay_value("CCCc1c(OCCCCCc2ccc3cc(O)c(O)cc3c2)ccc(C(=O)O)c1O")
"165 to 167 °C"
>>> assay_value("COc1ccc(CN(C)CCCc2ccc(NC(=O)c3cccc4c(=O)c5cccc(F)c5[nH]c34)cc2)cc1OC")
"158 °C"
>>> assay_value("CC(C)(C)OC(=O)[C@@H]1CC[C@H](c2ccccc2)N1C(=O)CNC(=O)Nc1cccc(CC(=O)O)c1")
"112 °C"
>>> assay_value("O=C1c2cccc3c4c(cc(c23)C(=O)N1O)OCOC4")
"> 350 °C"
>>> assay_value("COc1ccc(S(=O)(=O)c2c(Br)cc(CC(=O)O)cc2Br)cc1C1CCCCC1")
"146 to 150 °C"
>>> assay_value("O=C(CNC(=O)OCc1ccccc1)Nn1cccc1C(=O)c1ccccc1")
"96 to 98 °C"
>>> assay_value("NC(=O)Cc1nc(-c2ccc(Cl)cc2)sc1-c1ccccc1")
"202 to 203 °C"
>>> assay_value("CCCCCCCCCCCCCCCCCC(O)c1ccc(C2=NC(C)(C)CO2)cc1 (stereo not given)")
"72 to 75 °C"
>>> assay_value("COc1ccc(C=C(C#N)C=O)cc1OC")
"157 to 158 °C"

###

List of melting point values.
quantity-name: melting point

>>> assay_value("CC(SC1COC(c2ccc(C(=O)Nc3ccc(SC(F)(F)F)cc3)cc2)OC1)C(O)(Cn1cncn1)c1ccc(F)cc1F (stereo not given)")
"95 °C"
>>> assay_value("O=C(O)c1ccc(S(F)(F)(F)(F)F)cc1[N+](=O)[O-]")
"165 to 167 °C"
>>> assay_value("COc1cc(OC)cc(-c2cc(=O)c3ccc(OCC4CO4)cc3o2)c1 (stereo not given)")
"181 to 182 °C"
>>> assay_value("COc1cc(O)cc(C)c1C=CC(=O)c1ccc(O)cc1")
"197 to 198 °C"
>>> assay_value("C[C@@H]1C[C@H](C)CN(S(=O)(=O)c2ccc(Cl)c(C(=O)NCCCC(=O)O)c2)C1")
"193 to 195 °C"
>>> assay_value("CC(C)(C)OC(=O)NCC(O)CNC(=O)OC(C)(C)C")
"92 °C"
>>> assay_value("C=C(c1ccc(F)cc1)c1ccccc1Cl")
"73 to 74 °C"
>>> assay_value("O=C(CCn1cnc2c(=O)[nH]cnc21)NCCc1c[nH]c2ccccc12")
"204 to 206 °C"
>>> assay_value("COc1ccc(-n2cnc3cc(N)ccc32)cc1")
"44 to 45 °C"
>>> assay_value("COc1ccc(C(=O)Cc2ccc(Br)cc2)c(Cl)c1Cl")
"163 to 164 °C"
>>> assay_value("CCCCCCc1ccc(C(=O)Cc2ccc(Br)cc2)cc1")
"108 °C"
>>> assay_value("CNC(=O)COc1cc(C(F)(F)F)cc(C(F)(F)F)c1")
"98 to 99 °C"
>>> assay_value("CCC(C)C(NC(=O)OCc1ccccc1)C(=O)NC(C(=O)Nc1n[nH]c(=S)s1)C(C)C (stereo not given)")
"197 to 198 °C"
>>> assay_value("NC(=O)CNC(=O)c1cccc(-c2ncnc3cc(Cc4cccc(C(F)(F)F)c4)sc23)c1")
"205 to 206 °C"
>>> assay_value("N#Cc1cnc2sc(I)cc2c1Nc1cccc2cc[nH]c12")
"> 245 °C"
>>> assay_value("CCOC(=O)N(CC(=O)NCCc1ccc(OC)c(OC)c1)c1cccc(C(N)=O)c1")
"104 to 105 °C"
>>> assay_value("CC(C)(C)OC(=O)N1CCN(c2nccc(Oc3ccc(NC(=O)c4cc(F)cc(N5CCCCC5)c4)c4ccccc34)n2)CC1")
"175 to 177 °C"
>>> assay_value("Cc1ccc(-c2n[nH]c3ccccc23)cc1")
"106 to 107 °C"
>>> assay_value("Nc1ncnc2nc(-c3cccc(Cl)c3)cnc12")
"260 to 264 °C"
>>> assay_value("COC(=O)[C@H](Cc1ccc(NC(=O)c2c(C)cccc2Cl)cc1)NC(=O)OC(C)(C)C")
"154 to 157 °C"

###

quantity-name: melting point

>>> assay_value("CCCC1=C(c2ccc(F)cc2)C(=NO)CC1")
"165 to 166 °C"
>>> assay_value("CCCCNC(=O)C1(c2ccccc2)CCN(C)CC1")
"73 to 76.5 °C"
>>> assay_value("S=C=Nc1ccc2nc(Oc3ccccc3)sc2c1")
"118 to 119 °C"
>>> assay_value("CC(=O)N[C@@H](CSC(=O)[C@@H](C)c1ccc(CC(C)C)cc1)C(=O)O")
"123 to 125 °C"
>>> assay_value("CCN1C(=O)CCCc2c1ccc(Nc1ncc(Cl)c(N[C@@H]3CCC[C@H]3NS(C)(=O)=O)n1)c2OC (relative stereo)")
"141 °C"
>>> assay_value("C=CCc1ccc(OCCC(C)C)c2c(=O)cc(C(=O)OCC)oc12")
"104 to 106 °C"
>>> assay_value("CNC1=Nc2ccc(Cl)cc2N(c2ccccc2)C(=O)C1")
"215 to 217 °C"
>>> assay_value("CCCCCCCCCCCCCC/C=C\\CN1C(=O)c2ccccc2C1=O")
"56 to 60 °C"
>>> assay_value("OC1CCN(c2nnc(-c3ccc(Cl)cc3)c(-c3ccc(Cl)cc3)n2)CC1")
"102 to 105 °C"
>>> assay_value("COC(=O)CCSc1cc(C(C)(C)C)c(O)c(C(C)(C)C)c1")
"63.5 to 65.5 °C"
>>> assay_value("Fc1ccc2[nH]cc(CC3CCNCC3)c2c1")
"155 to 157 °C"
>>> assay_value("CS(=O)(=O)NC1CCN(C(=O)Cn2nc(-c3ccncc3)cc2Cc2ccc(F)cc2)CC1")
"128 to 139 °C"
>>> assay_value("CCCCC1(CCCC)c2cc(Br)ccc2-c2ccc(N(c3ccccc3)c3ccccc3)cc21")
"116 to 118 °C"
>>> assay_value("CCCCc1nc(Cl)c(C(=O)O)n1Cc1ccc2oc(-c3ccccc3C(=O)O)c(Br)c2c1")
"148 to 152 °C"
>>> assay_value("CCCCCN1C(=O)C2(OCc3cc4c(cc32)OCO4)c2ccccc21 (stereo not given)")
"113 to 115 °C"
>>> assay_value("COc1cc2cc(C(C#N)(C(C)CC#N)N3CCOCC3)sc2cc1OC (stereo not given)")
"162 to 165 °C"
>>> assay_value("CNC(=O)c1ccnc(NC(=O)N2CCC3(CC2)Cc2ccccc2C3)c1")
"229 to 231 °C"
>>> assay_value("Oc1ccc(C2(c3ccc(O)cc3)c3ccccc3C(c3ccc(O)cc3)(c3ccc(O)cc3)c3ccccc32)cc1")
"208 to 209 °C"
>>> assay_value("Nc1cccc(-c2ccc(CCN3CCN(C(=O)Nc4ccc(Cl)cc4)CC3)cc2)n1")
"160 to 162 °C"
>>> assay_value("FC(F)(F)c1ccc2nc(N3CCN(Cc4c(Cl)cccc4Cl)CC3)[nH]c2c1")
"254 to 256 °C"

###

Measured melting point, listed per entry for reference.
quantity-name: melting point

>>> assay_value("CNC(=O)C(=N[C@@H](C)c1ccccc1)C(C)(C)C")
"120 °C"
>>> assay_value("O=[N+]([O-])c1cc(-c2nc3ccccc3s2)ccc1O")
"214 to 215 °C"
>>> assay_value("O=c1cc[nH]c2c(Sc3nc4ccccc4[nH]3)cccc12")
"> 240 °C"
>>> assay_value("CC(C)(C)C(=O)Nc1cccc(-c2ccnc3c(C(=O)c4ccccc4)cnn23)c1")
"160 to 161 °C"
>>> assay_value("C=Cc1ccc(OC(=O)C(Cl)(Cl)Cl)cc1")
"37 to 39 °C"
>>> assay_value("Cn1nc(-c2ccccc2S(N)(=O)=O)oc1=O")
"168 to 173 °C"
>>> assay_value("Cc1c[nH]c(-c2c(Cl)cc(C(F)(F)F)cc2Cl)n1")
"211 to 212 °C"
>>> assay_value("CC1(C)C2CCC1(CS(=O)(=O)N1CCC3(C=Cc4ccccc43)CC1)C(O)(CC(=O)O)C2 (configuration not stated)")
"138 to 140 °C"
>>> assay_value("CCOC(=O)N1CCN(c2nc(NC(C)=O)ccc2F)CC1")
"132 to 133 °C"
>>> assay_value("CCCCNc1cc(CNC(=O)OCC)cc(S(N)(=O)=O)c1Oc1ccccc1")
"105 to 107 °C"
>>> assay_value("CCOC(=O)c1cc(C)n(-c2cccc(Cl)c2)c1-c1ccccc1")
"93.2 to 94.6 °C"
>>> assay_value("COC(=O)C1CCC2C3CCC4CC=CCC4(C)C3C(=O)CC12C (configuration not stated)")
"169 to 175 °C"
>>> assay_value("CC(C)c1cc(S(C)(=O)=O)c(C(C)C)cc1C#N")
"134 to 137 °C"
>>> assay_value("COC(=O)C1(CCCCCCCCCCCCC2(C(=O)NS(C)(=O)=O)CC2)CC1")
"53.5 to 54.5 °C"
>>> assay_value("CC(C)NS(=O)(=O)c1cccc(NC(=O)c2cnn3c(C(F)F)cc(-c4ccc(C(F)(F)F)cc4)nc23)c1")
"229 °C"
>>> assay_value("Cc1cccc(OCC2=NCCN2C(=O)Oc2cccc(C)c2C)c1C")
"126 to 127 °C"
>>> assay_value("CC(=O)N(Cc1cccnc1)c1ccc(Cl)cc1")
"64 to 65 °C"
>>> assay_value("CO/N=C/C1=NNC(=O)N(/N=C/c2cccnc2)C1")
"237 to 238 °C"
>>> assay_value("CC(Oc1cccc(Oc2c(Cl)cc(C(F)(F)F)cc2Cl)c1)(C(=O)Cl)[N+](=O)[O-] (configuration not stated)")
"92 °C"
>>> assay_value("Oc1ncc(Br)cc1C(F)(F)F")
"160 to 162 °C"
>>> assay_value("CCC(=O)c1ccc(O)c(C)c1")
"83 to 85 °C"
>>> assay_value("O=C(O)Cc1ccc(Br)cc1F")
"121 to 122 °C"
